tested on: Hepatitis C virus; experiment: Antiviral activity against Hepatitis C virus infected in […] after 72 hrs by luciferase reporter gene assay; type: functional, organism-based, Hepacivirus hominis; details: OR6, 72 h
The following compounds are listed with their measured EC50 values.
Field: numeric (µM). Do not append units.

Nc1ncnc2c1ncn2[C@@H]1O[C@](F)(CO)[C@@H](F)[C@H]1O : 4.7

Let us move to another entry and its EC50.
Request: Hepatitis C virus / EC50 / Nc1ncnc2c1ncn2[C@@H]1O[C@H](CO)C[C@H]1O [CORDYCEPIN] : value?
Response: 70

* * *

This listing pairs molecules with measured CC50 at 72 h.
assay: Cytotoxicity against human ORL8 cells after 72 hrs by WST-1 assay; type: cell-based
The reply should contain only the number, in µM.

Worked examples, 4 molecules total:
Nc1ncnc2c1ncn2[C@@H]1O[C@H](CO)C[C@H]1O [CORDYCEPIN] : 13
Nc1ccn([C@@H]2O[C@](F)(CO)[C@H](F)[C@H]2O)c(=O)n1 : 36
Nc1ncnc2c1ncn2[C@@H]1O[C@](F)(CO)[C@@H](F)[C@H]1O : 90
Nc1ccn([C@@H]2O[C@@](F)(CO)[C@H](F)[C@H]2O)c(=O)n1 : 23

Shifting focus to the molecule that follows.
Request: Bench note: what CC50 at 72 h did NC(=O)c1ncn([C@@H]2O[C@H](CO)[C@@H](O)[C@H]2O)n1 [RIBAVIRIN] show?
Response: 100

* * *

test system: Cancer cell lines; assay: Cytotoxicity against human cervical cancer cells; type: functional, cell-based
Calls of active or inactive are those of the source. No cut-off for these calls is given here.
quantityKind: inhibition

Nc1ncnc2c1ncn2[C@@H]1O[C@@](F)(CO)[C@H](F)[C@H]1O : inactive
Nc1ncnc2c1ncn2[C@@H]1O[C@](F)(CO)[C@@H](F)[C@H]1O : inactive
Nc1ncnc2c1ncn2[C@@H]1O[C@@](F)(CO)[C@@H](F)[C@@H]1O : inactive
Nc1ncnc2c1ncn2[C@@H]1O[C@](F)(CO)[C@H](F)[C@H]1O : inactive

* * *

experiment: Selectivity index, ratio of CC50 for human ORL8 cells to EC50 for Hepatitis C virus infected in […]; assay type: toxicity, cell-based; conditions: read-out: Ratio CC50/EC50
Measured selectivity ratio, listed per entry.

Nc1ncnc2c1ncn2[C@@H]1O[C@@](F)(CO)[C@H](F)[C@H]1O : > 1
Nc1ccn([C@@H]2O[C@@](F)(CO)[C@H](F)[C@H]2O)c(=O)n1 : < 0.23
NC(=O)c1ncn([C@@H]2O[C@H](CO)[C@@H](O)[C@H]2O)n1 [RIBAVIRIN] : 18
Nc1ncnc2c1ncn2[C@@H]1O[C@@](F)(CO)[C@@H](F)[C@@H]1O : > 1
Nc1ccn([C@@H]2O[C@](F)(CO)[C@@H](F)[C@H]2O)c(=O)n1 : < 1
Nc1ncnc2c1ncn2[C@@H]1O[C@](F)(CO)[C@@H](F)[C@H]1O : 19
CC(C)OC(=O)[C@H](C)N[P@](=O)(OC[C@H]1O[C@@H](n2ccc(=O)[nH]c2=O)[C@](C)(F)[C@@H]1O)Oc1ccccc1 [SOFOSBUVIR] : > 36
Nc1ncnc2c1ncn2[C@@H]1O[C@](F)(CO)[C@H](F)[C@H]1O : > 1
Nc1ncnc2c1ncn2[C@@H]1O[C@H](CO)C[C@H]1O [CORDYCEPIN] : 0.19

# input for lookup
Request: // lookup selectivity ratio for `Nc1ccn([C@@H]2O[C@](F)(CO)[C@H](F)[C@H]2O)c(=O)n1`
Response: < 0.36

* * *

The following compounds are shown together with reported EC50 values.
system: Hepatitis C virus; test: Antiviral activity against Hepatitis C virus infected in […] after 72 hrs by luciferase reporter gene assay; format: functional, organism-based, Hepacivirus hominis; conditions: OR6, 72 h

Example entries begin here.
Nc1ccn([C@@H]2O[C@@](F)(CO)[C@H](F)[C@H]2O)c(=O)n1 : > 100 µM
Nc1ncnc2c1ncn2[C@@H]1O[C@@](F)(CO)[C@H](F)[C@H]1O : > 100 µM

Request: What measured EC50 is associated with `Nc1ncnc2c1ncn2[C@@H]1O[C@](F)(CO)[C@H](F)[C@H]1O` on Hepatitis C virus?
Response: > 200 µM

* * *

Items are presented alongside their recorded EC50.
test system: Hepatitis C virus; test: Antiviral activity against Hepatitis C virus infected in […] after 72 hrs by luciferase reporter gene assay; format: functional, organism-based, Hepacivirus hominis; conditions: OR6, 72 h

Solved entries (count: 2):
Nc1ccn([C@@H]2O[C@](F)(CO)[C@H](F)[C@H]2O)c(=O)n1 : > 100 µM
Nc1ccn([C@@H]2O[C@](F)(CO)[C@@H](F)[C@H]2O)c(=O)n1 : > 50 µM

Request: Fill in the blank: the reported EC50 of `Nc1ncnc2c1ncn2[C@@H]1O[C@@](F)(CO)[C@@H](F)[C@@H]1O` is ____.
Response: > 200 µM

* * *

experiment: Cytotoxicity against human ORL8 cells after 72 hrs by WST-1 assay; format: cell-based
Known CC50 at 72 h of a selection of compounds

Worked examples, 3 compounds total:
CC(C)OC(=O)[C@H](C)N[P@](=O)(OC[C@H]1O[C@@H](n2ccc(=O)[nH]c2=O)[C@](C)(F)[C@@H]1O)Oc1ccccc1 : > 5 µM
Nc1ncnc2c1ncn2[C@@H]1O[C@](F)(CO)[C@H](F)[C@H]1O : > 200 µM
Nc1ccn([C@@H]2O[C@](F)(CO)[C@@H](F)[C@H]2O)c(=O)n1 : > 50 µM

Request: Entry under review: `Nc1ncnc2c1ncn2[C@@H]1O[C@@](F)(CO)[C@H](F)[C@H]1O` . Reported CC50 at 72 h?
Response: > 100 µM

Request: Param item: `Nc1ncnc2c1ncn2[C@@H]1O[C@@](F)(CO)[C@@H](F)[C@@H]1O`
Response: > 200 µM

Values compiled from ChEMBL document CHEMBL3352698.
